target: NNMT (hNNMT) (Homo sapiens); construct: wild type, N-terminal His6 tag kept (no cleavage described), E. coli, construct 31248 Da; design: Intact protein LC/MS covalent labelling, fragments in pools of five, 200 uM each, 4 °C; details: 24 h, 4 °C, pool of five; 200 µM; covalent
Sequence (P40261 whole entry, the tested form may be a part): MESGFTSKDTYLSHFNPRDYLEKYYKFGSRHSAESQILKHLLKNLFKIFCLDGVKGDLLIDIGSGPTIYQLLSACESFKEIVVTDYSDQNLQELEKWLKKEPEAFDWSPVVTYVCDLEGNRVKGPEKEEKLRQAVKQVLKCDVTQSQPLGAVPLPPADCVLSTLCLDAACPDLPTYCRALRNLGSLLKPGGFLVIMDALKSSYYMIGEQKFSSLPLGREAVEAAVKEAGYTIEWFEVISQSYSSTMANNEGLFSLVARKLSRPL
readout.label: NNMT

{"compound": "O=C(CCl)NC(=O)c1ccccc1Br [PCM-0102464]", "reported": 0}
{"compound": "C=CC(=O)N1CCCC(c2ncc(C(F)(F)F)[nH]2)C1 (centres unmarked) [PCM-0102527]", "reported": 0}
{"compound": "CC(=O)c1oc2ccccc2c1NC(=O)CCl [PCM-0102918]", "reported": 0.56}
{"compound": "C=CC(=O)N1CCCC(n2nc(C)nc2C)C1 (centres unmarked) [PCM-0102479]", "reported": 0}
{"compound": "COc1ccc(NC(=O)CCl)cc1Cl [PCM-0102652]", "reported": 0.83}
{"compound": "CC(C)(C)CCNC(=O)CCl [PCM-0102853]", "reported": 0.24}
{"compound": "O=C(CCl)NCc1ccccc1F [PCM-0102149]", "reported": 0}
{"compound": "CC(NC(=O)CCl)C(=O)N(C)C (centres unmarked) [PCM-0102754]", "reported": 0}
{"compound": "C=CC(=O)N1CCN(C(=O)Cc2c(C)noc2C)CC1 [PCM-0102531]", "reported": 0}
{"compound": "NS(=O)(=O)c1ccc(NC(=O)CCl)cc1 [PCM-0102807]", "reported": 0}
{"compound": "C=CC(=O)NC1CCCN(C(=O)OC)C1 (centres unmarked) [PCM-0102526]", "reported": 0.22}

###

# reported viability at 48 h, 10 µM; entries follow
assay: in vitro; parameters: species or system HB2, HEK293; conditions: human, ccd841 cells
readout.label: viability at 48 h, 10 µM (%)

{"compound": "O=C(CCl)Nc1cccnc1N1CCCC1", "reported": 100}
{"compound": "C=CC(=O)NCC1CCCS1 (stereo not drawn)", "reported": 105}
{"compound": "Cl.O=C(CCl)N1CCN(Cc2cccc(Cl)c2)CC1", "reported": 24.2}
{"compound": "CN(C(=O)CCl)c1ccc([N+](=O)[O-])cc1", "reported": 17.3}
{"compound": "O=C(CCl)Nc1ccc2c(c1)OC1(CCCC1)O2", "reported": 59.7}
{"compound": "Cc1cc(SC#N)ccc1NC(=O)CCl", "reported": 19.6}

###

# reported NUDT7; entries follow
target: NUDT7 (Homo sapiens, UniProt P0C024); construct: residues 14-235, E. coli, pNIC28-Bsa4, N-terminal His6 tag removed by TEV, construct 26672 Da; parameters: Intact protein LC/MS covalent labelling, fragments in pools of five, 200 uM each, 4 °C; conditions: 24 h, 4 °C, pool of five; 200 µM; covalent
Sequence (P0C024 14-235): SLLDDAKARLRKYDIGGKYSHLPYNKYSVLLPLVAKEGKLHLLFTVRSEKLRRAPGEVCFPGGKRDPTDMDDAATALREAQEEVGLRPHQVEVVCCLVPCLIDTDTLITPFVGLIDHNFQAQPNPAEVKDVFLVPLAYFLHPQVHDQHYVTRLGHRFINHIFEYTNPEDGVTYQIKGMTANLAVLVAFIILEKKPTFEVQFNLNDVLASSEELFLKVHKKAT

{"molecule": "C=CC(=O)N1CCC(c2nc(C(F)(F)F)c[nH]2)CC1", "NUDT7": 0}
{"molecule": "C=CC(=O)N1CCC(CN)CC1.Cl", "NUDT7": 0}
{"molecule": "C=CC(=O)NC(C#N)C(C)C (centres unmarked)", "NUDT7": 0}
{"molecule": "O=C(CCl)N1CCN(c2ccccc2[N+](=O)[O-])CC1", "NUDT7": 0.27}
{"molecule": "CC(NC(=O)CCl)c1ccc(Cl)c(Cl)c1 (centres unmarked)", "NUDT7": 0.51}
{"molecule": "COc1ccc(C2=CCN(C(=O)CCl)CC2)cc1", "NUDT7": 0.45}
{"molecule": "C=CC(=O)Nc1cccc(OC)c1", "NUDT7": 0}
{"molecule": "Cc1c(C#N)sc(NC(=O)CCl)c1C#N", "NUDT7": 0}
{"molecule": "CN(C)c1ccc(Cl)cc1NC(=O)CCl", "NUDT7": 0.14}
{"molecule": "COc1ccc2nc(NC(=O)CCl)sc2c1", "NUDT7": 1}
{"molecule": "O=C(CCl)NC(=O)Nc1ccccc1F", "NUDT7": 0}
{"molecule": "O=C(CCl)NC(=O)c1ccccc1Br", "NUDT7": 0}
{"molecule": "C=CC(=O)Nc1ccc(Cl)cc1", "NUDT7": 0.12}
{"molecule": "NS(=O)(=O)c1ccc(Cl)c(NC(=O)CCl)c1", "NUDT7": 0}
{"molecule": "C=CC(=O)NC1(C#N)CCOC1 (centres unmarked)", "NUDT7": 0}
{"molecule": "Cc1ccccc1CNC(=O)CCl", "NUDT7": 0}
{"molecule": "O=C(CCl)NNC(=O)c1ccc(Cl)cc1", "NUDT7": 0}
{"molecule": "C=CC(=O)N1CCC(N2CCS(=O)(=O)CC2)CC1", "NUDT7": 0}
{"molecule": "C=CC(=O)N1CCN(c2nc3ccccc3o2)C(C)C1 (centres unmarked)", "NUDT7": 0}
{"molecule": "Cc1ccc(C(=O)O)cc1NC(=O)CCl", "NUDT7": 0}
{"molecule": "O=C(CCl)N1CCCC1c1cccs1 (centres unmarked)", "NUDT7": 0.36}
{"molecule": "C=CC(=O)N1CCCN(C(=O)C2CCCO2)CC1 (centres unmarked)", "NUDT7": 0}
{"molecule": "Cl.O=C(CCl)N1CCN(c2ncccn2)CC1", "NUDT7": 0}
